# assay_remarks: Toxicity (LD10, LD50) in healthy mice
# Type: in vivo, C57Bl/F mice
# condition_notes: mouse, in vivo, iv, healthy C57B1/F mice; read-out: LD50 (dose inducing 50% of death mice)
measured_property: LD50 (mg/kg)
Provide the reading as a plain figure in mg/kg.

## Task What does the data say about its LD50? Entry: CC[C@@]1(O)C(=O)OCc2c1cc1n(c2=O)Cc2cc3ccccc3nc2-1 [CPT, camptothecin]
## Result 43.4
